SYSTEM UNDER TEST: collagenase from Clostridium histolyticum
METHOD NOTES: fluorogenic MMP2 substrate collagenase inhibition assay
pIC50: −log10 of the molar value.
Everything with pIC50 lower than 4 is NO; everything else, including exactly 4, is YES.

Enquiry: Is pIC50 for CC(C)C[C@H](NP(=O)(O)O[C@@H]1O[C@@H](C)[C@H](O)[C@@H](O)[C@H]1O)C(=O)N[C@@H](Cc1c[nH]c2ccccc12)C(=O)O [PRMD, phosphoramidon, reference compound] at or above 4?
Return: YES

Enquiry: Textbook exercise: given the entry O=C1c2c(O)cc(O)cc2O[C@H](c2ccc(O)c(O)c2)[C@H]1O [compound 4, taxifolin] , state whether its pIC50 is greater than or equal to 4.
Return: NO

Enquiry: Reported pIC50 at or above 4? O=C1c2c(O)cc(O)cc2O[C@H](c2ccc(O)c(O[C@@H]3O[C@H](CO)[C@@H](O)[C@H](O)[C@H]3O)c2)[C@H]1O [compound 9, taxifolin-3′-O-glucoside]
Return: NO

Kindly review the next molecule as well.
Enquiry: Exam item: decide whether the reported pIC50 for OC[C@H]1O[C@@H](Oc2cc(O)cc(/C=C/c3ccc(O)cc3)c2)[C@H](O)[C@@H](O)[C@@H]1O [compound 6, E-piceid] is at least 4.
Return: NO

From: paper PMC6272914
